# System: Mycolicibacterium smegmatis
# assay method text: Antimycobacterial activity against Mycobacterium smegmatis CMCC 93202 after 72 hrs by serial double dilution technique
# Format: functional
# experimental setup: CMCC 93202, 72 h
readout: MIC (µM)
All answers are understood in µM, so give the number only.

Reference set (2 entries):
INSERT INTO measurements (structure_string, readout, units_label, quantitative_result) VALUES
  ('CO/N=C1\C(=O)N(CCN2CCN(c3c(F)cc4c(=O)c(C(=O)O)cn(C5CC5)c4c3OC)CC2)c2ccc(F)cc21', 'MIC', 'µM', 2.68),
  ('COc1c(N2CCN(CN3C(=O)/C(=N\NC(N)=O)c4ccccc43)CC2)c(F)cc2c(=O)c(C(=O)O)cn(C3CC3)c12', 'MIC', 'µM', 1.35);

Fill in the blank: the reported MIC of COc1c(N2CCN(CN3C(=O)/C(=N\O)c4ccccc43)CC2)c(F)cc2c(=O)c(C(=O)O)cn(C3CC3)c12 is ____.
2.92

# get_value(readout='MIC', item= COc1c(N2CCN(CN3C(=O)/C(=N\NC(N)=O)c4cc(F)ccc43)CC2)c(F)cc2c(=O)c(C(=O)O)cn(C3CC3)c12 )
2.62

Report MIC for COc1c(N2CCN(CCN3C(=O)/C(=N\NC(N)=O)c4cc(F)ccc43)CC2)c(F)cc2c(=O)c(C(=O)O)cn(C3CC3)c12 please.
5.12

Find the recorded MIC belonging to COc1c(N2CCN(CN3C(=O)C(=O)c4cc(F)ccc43)CC2)c(F)cc2c(=O)c(C(=O)O)cn(C3CC3)c12 and report it.
2.9

Any idea what MIC was measured for COc1c(N2CCN(CCN3C(=O)/C(=N\NC(N)=S)c4cc(F)ccc43)CC2)c(F)cc2c(=O)c(C(=O)O)cn(C3CC3)c12 ?
2.5

###

# Test system: Mycolicibacterium smegmatis
# assay method text: Antimycobacterial activity against Mycobacterium smegmatis CMCC 93202 after 72 hrs by serial double dilution technique
# Type: functional
# experimental setup: CMCC 93202, 72 h
Quick reference: MIC of the listed items.
Numbers only; they are read as µM.

Past entries and their recorded results:
INSERT INTO assay_data (compound, quantitative_result) VALUES
  ('CO/N=C1\C(=O)N(CN2CCN(c3c(F)cc4c(=O)c(C(=O)O)cn(C5CC5)c4c3OC)CC2)c2ccccc21', 5.68),
  ('CCO/N=C1\C(=O)N(CCN2CCN(c3c(F)cc4c(=O)c(C(=O)O)cn(C5CC5)c4c3OC)CC2)c2ccccc21', 5.41),
  ('COc1c(N2CCN(CN3C(=O)/C(=N\NC(N)=S)c4ccccc43)CC2)c(F)cc2c(=O)c(C(=O)O)cn(C3CC3)c12', 2.63),
  ('COc1c(N2CCN(CCN3C(=O)/C(=N\NC(N)=O)c4ccccc43)CC2)c(F)cc2c(=O)c(C(=O)O)cn(C3CC3)c12', 5.28),
  ('CO/N=C1\C(=O)N(CCN2CCN(c3c(F)cc4c(=O)c(C(=O)O)cn(C5CC5)c4c3OC)CC2)c2ccccc21', 2.77),
  ('COc1c(N2CCN(CCN3C(=O)/C(=N\NC(N)=S)c4ccccc43)CC2)c(F)cc2c(=O)c(C(=O)O)cn(C3CC3)c12', 2.57),
  ('COc1c(N2CCN(CN3C(=O)/C(=N\O)c4cc(F)ccc43)CC2)c(F)cc2c(=O)c(C(=O)O)cn(C3CC3)c12', 1.41);

Consider the compound shown here: NNC(=O)c1ccncc1 [ISONIAZID] What is its recorded MIC?
5.69

###

# Test system: Mycolicibacterium smegmatis
# assay method text: Antimycobacterial activity against Mycobacterium smegmatis CMCC 93202 after 72 hrs by serial double dilution technique
# Format: functional
# experimental setup: CMCC 93202, 72 h
Classify: Y when MIC is strictly less than 4 µM; N when MIC is not.

These solved cases illustrate the format of a correct answer.
INSERT INTO assay_data (structure_string, class_label) VALUES
  ('COc1c(N2CCNCC2)c(F)cc2c(=O)c(C(=O)O)cn(C3CC3)c12', 'Y'),
  ('CCO/N=C1\C(=O)N(CCN2CCN(c3c(F)cc4c(=O)c(C(=O)O)cn(C5CC5)c4c3OC)CC2)c2ccc(F)cc21', 'Y');

Dear reviewer, please state whether COc1c(N2CCN(CCN3C(=O)/C(=N\O)c4cc(F)ccc43)CC2)c(F)cc2c(=O)c(C(=O)O)cn(C3CC3)c12 has MIC strictly beneath 4 µM.
N

Hi there! Is MIC for COc1c(N2CCN(CCN3C(=O)C(=O)c4cc(F)ccc43)CC2)c(F)cc2c(=O)c(C(=O)O)cn(C3CC3)c12 below 4 µM, do you know?
Y

Regarding O=C(O)c1cn(C2CC2)c2cc(N3CCNCC3)c(F)cc2c1=O , kindly confirm whether its MIC is beneath 4 µM.
Y

Bench note: check whether CO[C@H]1/C=C/O[C@@]2(C)Oc3c(C)c(O)c4c(O)c(c(/C=N/N5CCN(C)CC5)c(O)c4c3C2=O)NC(=O)/C(C)=C\C=C\[C@H](C)[C@H](O)[C@@H](C)[C@@H](O)[C@@H](C)[C@H](OC(C)=O)[C@@H]1C shows MIC below 4 µM
Y

Does the reported MIC of COc1c(N2CCN(CCN3C(=O)C(=O)c4ccccc43)CC2)c(F)cc2c(=O)c(C(=O)O)cn(C3CC3)c12 stay below 4 µM?
N

Lab log: compare recorded MIC with 4 µM; is it strictly lower for CO/N=C1\C(=O)N(CN2CCN(c3c(F)cc4c(=O)c(C(=O)O)cn(C5CC5)c4c3OC)CC2)c2ccc(F)cc21 ?
Y

Cited source: ChEMBL document CHEMBL1649408
